Target or test system: DrPARG (Deinococcus radiodurans, UniProt Q9RZM4, T267K)
Construct: N-terminal His-tag cut with thrombin, GSHM left at N terminus; monomer, Mr 32 kDa; residues 100-110 GGGFLGGAQAQ
Sequence (Q9RZM4 entry or part of it T267K): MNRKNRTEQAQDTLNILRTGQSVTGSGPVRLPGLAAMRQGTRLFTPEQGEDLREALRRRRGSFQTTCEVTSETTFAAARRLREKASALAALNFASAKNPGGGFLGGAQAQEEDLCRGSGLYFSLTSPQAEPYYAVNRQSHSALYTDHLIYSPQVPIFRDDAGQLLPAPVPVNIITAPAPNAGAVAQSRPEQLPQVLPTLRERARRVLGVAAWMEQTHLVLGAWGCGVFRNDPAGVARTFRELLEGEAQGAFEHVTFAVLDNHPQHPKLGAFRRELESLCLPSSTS
Experimental details: isothermal titration calorimetry
Condition details: 25 °C, 20 mM Tris-HCl pH 7.0, 100 mM NaCl; independent binding model
Quantity measured: pKd
Expect pKd as a plain number equal to -log10 of the molar concentration.

The measured pKd associated with Nc1ncnc2c1ncn2[C@@H]1O[C@H](COP(=O)(O)OP(=O)(O)OC[C@H]2OC(O)[C@H](O)[C@@H]2O)[C@@H](O)[C@H]1O (stereo partly shown) reads 5.70

###

Target or test system: DrPARG (Deinococcus radiodurans, UniProt Q9RZM4, E112A)
Construct: N-terminal His-tag cut with thrombin, GSHM left at N terminus; monomer, Mr 32 kDa; residues 100-110 GGGFLGGAQAQ
Sequence (Q9RZM4 entry or part of it E112A): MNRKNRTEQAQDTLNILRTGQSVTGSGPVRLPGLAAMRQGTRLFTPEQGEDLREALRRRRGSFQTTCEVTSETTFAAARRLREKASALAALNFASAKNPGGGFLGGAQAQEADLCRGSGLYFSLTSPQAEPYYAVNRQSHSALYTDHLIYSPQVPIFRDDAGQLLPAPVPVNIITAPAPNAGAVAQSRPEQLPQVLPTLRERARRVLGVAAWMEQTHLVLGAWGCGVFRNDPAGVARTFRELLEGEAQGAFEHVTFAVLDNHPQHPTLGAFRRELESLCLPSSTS
Experimental details: isothermal titration calorimetry
Condition details: 25 °C, 20 mM Tris-HCl pH 7.0, 100 mM NaCl; independent binding model
Quantity measured: pKd
Expect pKd as a plain number equal to -log10 of the molar concentration.

The measured pKd associated with Nc1ncnc2c1ncn2[C@@H]1O[C@H](COP(=O)(O)OP(=O)(O)OC[C@H]2OC(O)[C@H](O)[C@@H]2O)[C@@H](O)[C@H]1O (stereo partly shown) reads 5.69
